Target: T1, 4H485-AA
T1 chain: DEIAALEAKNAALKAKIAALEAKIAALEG
Experiment: two-hybrid library CCmax;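 further: natural log of median RNA to DNA barcode read ratio; higher means stronger binding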
Conditions: mean of both orientations
Property: interaction score

Quick one: interaction score of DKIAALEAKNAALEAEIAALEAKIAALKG [4H2438-AA] ?
2.05

Quick one: interaction score of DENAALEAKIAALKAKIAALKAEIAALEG [4H1385-AA] ?
-0.799

Quick one: interaction score of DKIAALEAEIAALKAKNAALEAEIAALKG [4H2162-AA] ?
-1.06

Quick one: interaction score of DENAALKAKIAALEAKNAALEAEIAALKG [4H1842-AA] ?
-1.94
